Test system: PC3
experiment notes: Viability assay (CellTiter 96 Aqueous1), cell growth inhibition
Format: cell-based
condition info: Homo sapiens, PC-3; PC3 (prostate cancer), viability 72 hours after addition
measured quantity: pIC50
One number for each entry, as −log10 of the molar value.

**Q:** Under PC3: pIC50 value of OC[C@H](NC[C@H]1NC[C@H](O)[C@@H]1O)c1ccc(-c2ccc(C(F)(F)F)cc2)cc1 [CB183] ?
**A:** 3.88

---

Test system: A549
experiment notes: Viability assay (CellTiter 96 Aqueous1), cell growth inhibition
Type: cell-based
condition info: Homo sapiens; A549 (lung carcinoma), viability 72 hours after addition
Protocol: Cell lines and reagents. The tumor cell lines used for the in vitro evaluation of cell growth inhibition by dihydroxypirolidine derivatives were U87 (glioblastoma), PC3 (prostate cancer), A549 (lung carcinoma), MDA-MB231, MCF7, BT474, and SKBR3 (breast cancer). […] Viability assays. […] Viability was determined 72 hours later using CellTiter 96 Aqueous1 (Promega) according to the manufacturer's instructions. […] Plates were read with a spectrophotometer (Labsystems iEMS Reader MF) at 490 nm wave length. […]
measured quantity: IC50 (µM)
One number for each entry, in µM.

**Q:** Any idea what IC50 was measured for OC[C@H](NC[C@H]1NC[C@H](O)[C@@H]1O)c1ccc(-c2ccc(C(F)(F)F)cc2)cc1 [CB183] ?
**A:** 152

These data points were gathered from patent EP2067771A1.
